- EXPERIMENT NOTES: Oral bioavailability of hydromorphone conjugates (plasma hydromorphone after oral gavage)
- EXPERIMENTAL PARAMETERS: rat, relative to hydromorphone control
Measured Oral Cmax % (corrected value based on control HM) of individual entries
API: value field is a number in %; no unit string.

Request: Please report the recorded Oral Cmax % (corrected value based on control HM) for CC(C)[C@H](NC(=O)[C@H](Cc1ccccc1)NC(=O)[C@@H](N)Cc1ccccc1)C(=O)OC1=CC[C@H]2[C@H]3Cc4ccc(O)c5c4[C@@]2(CCN3C)[C@H]1O5 [FFV-HM] .
Result: 36

###

- EXPERIMENT NOTES: Oral bioavailability of hydromorphone conjugates (plasma hydromorphone after oral gavage)
- EXPERIMENTAL PARAMETERS: rat, relative to hydromorphone control
Counter-ions that a name gives are not always drawn. Residues, ends and D or L forms follow the SMILES beside them. *: point of attachment. X5 = CC(=O)Oc1ccc2c3c1O[C@H]1C(O*)=CC[C@H]4[C@@H](C2)N(C)CC[C@]314; X2 = CN1CC[C@]23c4c5ccc(O)c4O[C@H]2C(O*)=CC[C@H]3[C@H]1C5
Criterion: Oral AUC % (corrected value based on bioavailability of control HM) strictly under 20%. Met: YES. Not met: NO.

Previously resolved entries follow.
• CC(C)[C@H](NC(=O)[C@H](CCCCN)NC(=O)[C@@H](N)CCCCN)C(=O)OC1=CC[C@H]2[C@H]3Cc4ccc(O)c5c4[C@@]2(CCN3C)[C@H]1O5 = NO
• CN1CC[C@]23c4c5ccc(O)c4O[C@H]2C(OC(=O)[C@H](Cc2ccccc2)NC(=O)[C@H](Cc2ccccc2)NC(=O)[C@H](Cc2ccccc2)NC(=O)[C@H](CCC(=O)O)NC(=O)[C@@H](N)CCC(=O)O)=CC[C@H]3[C@H]1C5 [EEFFF-HM, Glu2-Phe3-Hydromorphone.Dihydrochloride] (H-EEFFF-X2) = NO
• CC(C)C[C@H](NC(=O)[C@H](Cc1ccc(O)cc1)NC(=O)[C@@H](N)Cc1ccc(O)cc1)C(=O)OC1=CC[C@H]2[C@H]3Cc4ccc(O)c5c4[C@@]2(CCN3C)[C@H]1O5 = YES
• CC(C)C[C@H](NC(=O)[C@H](Cc1ccccc1)NC(=O)[C@@H](N)Cc1ccccc1)C(=O)OC1=CC[C@H]2[C@H]3Cc4ccc(O)c5c4[C@@]2(CCN3C)[C@H]1O5 = YES
• CC[C@H](C)[C@H](NC(=O)[C@H](Cc1ccc(O)cc1)NC(=O)[C@@H](N)Cc1ccc(O)cc1)C(=O)OC1=CC[C@H]2[C@H]3Cc4ccc(O)c5c4[C@@]2(CCN3C)[C@H]1O5 = NO
• CC(C)[C@H](NC(=O)[C@@H]1CCCN1C(=O)[C@@H]1CCCN1)C(=O)OC1=CC[C@H]2[C@H]3Cc4ccc(O)c5c4[C@@]2(CCN3C)[C@H]1O5 = NO

Request: Confirm or reject: Oral AUC % (corrected value based on bioavailability of control HM) of CC[C@H](C)[C@H](NC(=O)[C@H](CCC(=O)O)NC(=O)[C@@H](N)CCC(=O)O)C(=O)OC1=CC[C@H]2[C@H]3Cc4ccc(O)c5c4[C@@]2(CCN3C)[C@H]1O5 lies strictly below 20%
Result: NO

Request: Item CC[C@H](C)[C@H](NC(=O)[C@H](Cc1ccccc1)NC(=O)[C@@H](N)Cc1ccccc1)C(=O)OC1=CC[C@H]2[C@H]3Cc4ccc(O)c5c4[C@@]2(CCN3C)[C@H]1O5 : Oral AUC % (corrected value based on bioavailability of control HM) beneath 20%, strictly?
Result: YES

Request: Is Oral AUC % (corrected value based on bioavailability of control HM) of CC[C@H](C)[C@H](NC(=O)[C@H](Cc1ccccc1)NC(=O)[C@H](Cc1ccccc1)NC(=O)[C@H](Cc1ccc(O)cc1)NC(=O)[C@@H](N)Cc1ccc(O)cc1)C(=O)OC1=CC[C@H]2[C@H]3Cc4ccc(OC(C)=O)c5c4[C@@]2(CCN3C)[C@H]1O5 [YYFFI-HM-OAc] (H-YYFFI-X5) strictly below 20%?
Result: NO

Request: hey, is Oral AUC % (corrected value based on bioavailability of control HM) for CC(C)[C@H](NC(=O)[C@H](CCC(=O)O)NC(=O)[C@@H](N)CCC(=O)O)C(=O)OC1=CC[C@H]2[C@H]3Cc4ccc(O)c5c4[C@@]2(CCN3C)[C@H]1O5 lower than 20% or not?
Result: NO

Request: Quick check: does CC(C)C[C@H](NC(=O)CNC(=O)CN)C(=O)OC1=CC[C@H]2[C@H]3Cc4ccc(O)c5c4[C@@]2(CCN3C)[C@H]1O5 have Oral AUC % (corrected value based on bioavailability of control HM) under 20%?
Result: NO

Request: Field: below-cutoff. Rule: recorded Oral AUC % (corrected value based on bioavailability of control HM) strictly less than 20%. Subject: CC[C@H](C)[C@H](NC(=O)[C@H](Cc1ccccc1)NC(=O)[C@H](Cc1ccccc1)NC(=O)[C@H](Cc1ccc(O)cc1)NC(=O)[C@@H](N)Cc1ccc(O)cc1)C(=O)OC1=CC[C@H]2[C@H]3Cc4ccc(O)c5c4[C@@]2(CCN3C)[C@H]1O5 [YYFFI-HM] (H-YYFFI-X2)
Result: NO

Request: State whether 20% exceeds Oral AUC % (corrected value based on bioavailability of control HM) recorded for CC(C)C[C@H](NC(=O)[C@H](CCCCN)NC(=O)[C@@H](N)CCCCN)C(=O)OC1=CC[C@H]2[C@H]3Cc4ccc(O)c5c4[C@@]2(CCN3C)[C@H]1O5 .
Result: NO

Request: Consider CC[C@H](C)[C@H](NC(=O)[C@@H]1CCCN1C(=O)[C@@H]1CCCN1)C(=O)OC1=CC[C@H]2[C@H]3Cc4ccc(O)c5c4[C@@]2(CCN3C)[C@H]1O5 . Does its Oral AUC % (corrected value based on bioavailability of control HM) lie strictly below 20%?
Result: NO

Request: Consider the molecule CC(C)[C@H](NC(=O)CNC(=O)CN)C(=O)OC1=CC[C@H]2[C@H]3Cc4ccc(O)c5c4[C@@]2(CCN3C)[C@H]1O5 . Is its Oral AUC % (corrected value based on bioavailability of control HM) strictly less than 20%?
Result: NO

Request: State whether 20% exceeds Oral AUC % (corrected value based on bioavailability of control HM) recorded for CC[C@H](C)[C@H](NC(=O)CNC(=O)CN)C(=O)OC1=CC[C@H]2[C@H]3Cc4ccc(O)c5c4[C@@]2(CCN3C)[C@H]1O5 .
Result: YES

Request: For this molecule, is Oral AUC % (corrected value based on bioavailability of control HM) lower than 20%? CC(C)C[C@H](NC(=O)[C@H](CCC(=O)O)NC(=O)[C@@H](N)CCC(=O)O)C(=O)OC1=CC[C@H]2[C@H]3Cc4ccc(O)c5c4[C@@]2(CCN3C)[C@H]1O5
Result: NO

Request: Consider CC[C@H](C)[C@H](NC(=O)[C@H](CCCCN)NC(=O)[C@@H](N)CCCCN)C(=O)OC1=CC[C@H]2[C@H]3Cc4ccc(O)c5c4[C@@]2(CCN3C)[C@H]1O5 . Does its Oral AUC % (corrected value based on bioavailability of control HM) lie strictly below 20%?
Result: NO

Request: Please determine if CC(C)C[C@H](NC(=O)[C@@H]1CCCN1C(=O)[C@@H]1CCCN1)C(=O)OC1=CC[C@H]2[C@H]3Cc4ccc(O)c5c4[C@@]2(CCN3C)[C@H]1O5 is below 20% in terms of Oral AUC % (corrected value based on bioavailability of control HM).
Result: NO

Request: Item CC(C)[C@H](NC(=O)[C@H](Cc1ccccc1)NC(=O)[C@@H](N)Cc1ccccc1)C(=O)OC1=CC[C@H]2[C@H]3Cc4ccc(O)c5c4[C@@]2(CCN3C)[C@H]1O5 : Oral AUC % (corrected value based on bioavailability of control HM) beneath 20%, strictly?
Result: YES

Request: Field: below-cutoff. Rule: recorded Oral AUC % (corrected value based on bioavailability of control HM) strictly less than 20%. Subject: CC(C)[C@H](NC(=O)[C@H](Cc1ccc(O)cc1)NC(=O)[C@@H](N)Cc1ccc(O)cc1)C(=O)OC1=CC[C@H]2[C@H]3Cc4ccc(O)c5c4[C@@]2(CCN3C)[C@H]1O5
Result: NO

###

- EXPERIMENT NOTES: Intranasal bioavailability of hydromorphone conjugates (plasma hydromorphone after intranasal dosing)
- Format: in vivo, male Sprague-Dawley rats
- EXPERIMENTAL PARAMETERS: rat, relative to hydromorphone control
Where a name gives a salt, the structure may show the parent alone. Residues, ends and D or L forms follow the SMILES beside them. *: point of attachment. X5 = CC(=O)Oc1ccc2c3c1O[C@H]1C(O*)=CC[C@H]4[C@@H](C2)N(C)CC[C@]314; X2 = CN1CC[C@]23c4c5ccc(O)c4O[C@H]2C(O*)=CC[C@H]3[C@H]1C5
Grouping key: IN AUC % (corrected value based on bioavailability of control HM). Bins: bin 0 = under 50%, bin 1 = from 50% up to 80%, bin 2 = 80% and over

* CC[C@H](C)[C@H](NC(=O)CNC(=O)CN)C(=O)OC1=CC[C@H]2[C@H]3Cc4ccc(O)c5c4[C@@]2(CCN3C)[C@H]1O5 [GGI-HM] | bin 0
* CC(C)[C@H](NC(=O)[C@@H]1CCCN1C(=O)[C@@H]1CCCN1)C(=O)OC1=CC[C@H]2[C@H]3Cc4ccc(O)c5c4[C@@]2(CCN3C)[C@H]1O5 [PPV-HM] | bin 1
* CN1CC[C@]23c4c5ccc(O)c4O[C@H]2C(OC(=O)[C@H](Cc2ccccc2)NC(=O)[C@H](Cc2ccccc2)NC(=O)[C@H](Cc2ccccc2)NC(=O)[C@H](CCC(=O)O)NC(=O)[C@@H](N)CCC(=O)O)=CC[C@H]3[C@H]1C5 [EEFFF-HM, Glu2-Phe3-Hydromorphone.Dihydrochloride] (H-EEFFF-X2) | bin 1
* CC(C)C[C@H](NC(=O)[C@H](CCC(=O)O)NC(=O)[C@@H](N)CCC(=O)O)C(=O)OC1=CC[C@H]2[C@H]3Cc4ccc(O)c5c4[C@@]2(CCN3C)[C@H]1O5 [EEL-HM] | bin 2
* CC(C)C[C@H](NC(=O)[C@@H]1CCCN1C(=O)[C@@H]1CCCN1)C(=O)OC1=CC[C@H]2[C@H]3Cc4ccc(O)c5c4[C@@]2(CCN3C)[C@H]1O5 [PPL-HM] | bin 1

Request: Hi, small favor: classify CC(C)[C@H](NC(=O)[C@H](CCCCN)NC(=O)[C@@H](N)CCCCN)C(=O)OC1=CC[C@H]2[C@H]3Cc4ccc(O)c5c4[C@@]2(CCN3C)[C@H]1O5 [KKV-HM] by its IN AUC % (corrected value based on bioavailability of control HM) when you get a moment.
Result: bin 1

Request: Class label required: CC[C@H](C)[C@H](NC(=O)[C@H](Cc1ccccc1)NC(=O)[C@H](Cc1ccccc1)NC(=O)[C@H](Cc1ccc(O)cc1)NC(=O)[C@@H](N)Cc1ccc(O)cc1)C(=O)OC1=CC[C@H]2[C@H]3Cc4ccc(OC(C)=O)c5c4[C@@]2(CCN3C)[C@H]1O5 [YYFFI-HM-OAc] (H-YYFFI-X5)
Result: bin 1

Request: // bin(item) where item = CC(C)C[C@H](NC(=O)[C@H](CCCCN)NC(=O)[C@@H](N)CCCCN)C(=O)OC1=CC[C@H]2[C@H]3Cc4ccc(O)c5c4[C@@]2(CCN3C)[C@H]1O5 [KKL-HM]
Result: bin 2

Request: Class label required: CC[C@H](C)[C@H](NC(=O)[C@@H]1CCCN1C(=O)[C@@H]1CCCN1)C(=O)OC1=CC[C@H]2[C@H]3Cc4ccc(O)c5c4[C@@]2(CCN3C)[C@H]1O5 [PPI-HM]
Result: bin 1

Request: Would you mind sorting CC[C@H](C)[C@H](NC(=O)[C@H](CCCCN)NC(=O)[C@@H](N)CCCCN)C(=O)OC1=CC[C@H]2[C@H]3Cc4ccc(O)c5c4[C@@]2(CCN3C)[C@H]1O5 [KKI-HM] into the appropriate category?
Result: bin 1
